- target.or.system: human PI3Kα (Homo sapiens (Human), UniProt P42336)
- Sequence (P42336 whole entry): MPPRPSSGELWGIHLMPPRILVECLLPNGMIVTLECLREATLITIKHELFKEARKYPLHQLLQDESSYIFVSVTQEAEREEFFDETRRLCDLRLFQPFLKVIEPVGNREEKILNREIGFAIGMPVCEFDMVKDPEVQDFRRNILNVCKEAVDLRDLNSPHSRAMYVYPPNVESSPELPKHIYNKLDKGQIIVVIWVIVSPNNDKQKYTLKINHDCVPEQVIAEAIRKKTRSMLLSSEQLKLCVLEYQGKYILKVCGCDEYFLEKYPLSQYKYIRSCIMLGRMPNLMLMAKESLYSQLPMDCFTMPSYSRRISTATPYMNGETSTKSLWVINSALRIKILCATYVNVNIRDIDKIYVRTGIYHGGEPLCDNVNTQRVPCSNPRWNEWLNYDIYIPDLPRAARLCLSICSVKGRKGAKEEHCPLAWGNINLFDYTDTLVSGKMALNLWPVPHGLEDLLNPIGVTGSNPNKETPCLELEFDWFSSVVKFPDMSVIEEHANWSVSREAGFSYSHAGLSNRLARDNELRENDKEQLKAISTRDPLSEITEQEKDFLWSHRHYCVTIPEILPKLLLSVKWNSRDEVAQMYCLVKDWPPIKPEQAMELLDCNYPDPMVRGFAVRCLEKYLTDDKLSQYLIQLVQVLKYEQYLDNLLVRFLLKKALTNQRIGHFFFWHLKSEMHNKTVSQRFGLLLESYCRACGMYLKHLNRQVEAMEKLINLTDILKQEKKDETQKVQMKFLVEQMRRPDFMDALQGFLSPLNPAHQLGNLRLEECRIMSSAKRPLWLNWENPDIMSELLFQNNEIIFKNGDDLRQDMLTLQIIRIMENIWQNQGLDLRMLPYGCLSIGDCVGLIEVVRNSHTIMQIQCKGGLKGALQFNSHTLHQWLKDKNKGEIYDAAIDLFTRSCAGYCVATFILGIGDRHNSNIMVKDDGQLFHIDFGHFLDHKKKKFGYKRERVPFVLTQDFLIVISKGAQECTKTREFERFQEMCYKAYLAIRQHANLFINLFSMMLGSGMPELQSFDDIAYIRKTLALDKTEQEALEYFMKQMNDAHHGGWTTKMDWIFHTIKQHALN
- Sequence (P27986 whole entry partner): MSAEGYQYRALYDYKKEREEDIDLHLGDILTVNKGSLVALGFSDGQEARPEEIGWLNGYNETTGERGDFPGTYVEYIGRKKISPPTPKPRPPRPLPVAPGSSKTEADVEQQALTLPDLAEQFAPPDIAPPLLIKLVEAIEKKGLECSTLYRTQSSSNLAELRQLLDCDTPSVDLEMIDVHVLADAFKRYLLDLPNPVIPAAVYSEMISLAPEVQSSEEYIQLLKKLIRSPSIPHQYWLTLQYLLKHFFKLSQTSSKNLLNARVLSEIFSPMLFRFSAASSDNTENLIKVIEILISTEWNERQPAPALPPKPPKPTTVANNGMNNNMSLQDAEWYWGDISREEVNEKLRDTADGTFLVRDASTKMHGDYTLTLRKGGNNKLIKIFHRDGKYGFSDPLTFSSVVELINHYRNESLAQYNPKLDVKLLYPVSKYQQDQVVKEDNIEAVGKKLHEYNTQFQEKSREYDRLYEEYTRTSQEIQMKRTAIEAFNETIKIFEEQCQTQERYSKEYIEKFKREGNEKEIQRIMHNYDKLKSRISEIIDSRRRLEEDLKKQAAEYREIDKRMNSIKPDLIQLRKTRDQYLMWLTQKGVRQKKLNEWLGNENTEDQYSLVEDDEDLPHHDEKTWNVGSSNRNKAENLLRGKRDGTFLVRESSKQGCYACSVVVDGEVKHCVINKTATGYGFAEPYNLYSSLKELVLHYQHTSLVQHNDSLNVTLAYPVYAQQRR
- test.summary: Human PI3Kα activity test (luciferin/luciferase ATP consumption, KinaseGlo)
- Assay type: biochemical
- condition.notes: PI3Kα (p110α/p85α), 50 μM PIP2, 2 μM ATP, 90 minutes; read-out: IC50 Human PI3Kα
pIC50: −log10 of the molar value.
observed.property: pIC50

[[record]]
molecule = "N#Cc1cccc(C(=O)CN2c3nc(N4C[C@@H]5C[C@H]4CO5)cc(=O)n3CC[C@H]2C(F)(F)F)c1 [Compound 55]"
target_or_system = "human PI3Kα (Homo sapiens (Human), UniProt P42336)"
operator_symbol = "<"
numeric_result = 5.00

[[record]]
molecule = "O=C(COc1ccc(CCN2c3nc(N4C[C@@H]5C[C@H]4CO5)cc(=O)n3CC[C@H]2C(F)(F)F)cc1)N1CCOCC1 [Compound 115]"
target_or_system = "human PI3Kα (Homo sapiens (Human), UniProt P42336)"
operator_symbol = "="
numeric_result = 6.23

[[record]]
molecule = "C[C@@]1(C(F)(F)F)Cn2c(nc(N3C[C@@H]4C[C@H]3CO4)cc2=O)N1CCc1cccnc1 [Compound 13]"
target_or_system = "human PI3Kα (Homo sapiens (Human), UniProt P42336)"
operator_symbol = "="
numeric_result = 5.24

[[record]]
molecule = "O=C(CN1c2nc(N3C[C@@H]4C[C@H]3CO4)cc(=O)n2CC[C@H]1C(F)(F)F)c1ccc(OC(F)F)cc1 [Compound 37]"
target_or_system = "human PI3Kα (Homo sapiens (Human), UniProt P42336)"
operator_symbol = "<"
numeric_result = 5.00

[[record]]
molecule = "O=C(CN1c2nc(N3C[C@@H]4C[C@H]3CO4)cc(=O)n2CC[C@H]1C(F)(F)F)c1ccc(OCCF)c(F)c1 [Compound 64]"
target_or_system = "human PI3Kα (Homo sapiens (Human), UniProt P42336)"
operator_symbol = "<"
numeric_result = 5.00

[[record]]
molecule = "COc1cc(F)ccc1[C@H](O)CN1c2nc(N3CC4CCC(C3)O4)cc(=O)n2CC[C@H]1C(F)(F)F [Compound 71]"
target_or_system = "human PI3Kα (Homo sapiens (Human), UniProt P42336)"
operator_symbol = "="
numeric_result = 6.09

[[record]]
molecule = "Cc1ncccc1C(=O)CN1c2nc(N3C[C@@H]4C[C@H]3CO4)cc(=O)n2C[C@@]1(C)C(F)(F)F [Compound 18]"
target_or_system = "human PI3Kα (Homo sapiens (Human), UniProt P42336)"
operator_symbol = "<"
numeric_result = 5.00

[[record]]
molecule = "CN(C)C(=O)COc1ccc(CCN2c3nc(N4CC5CCC(C4)O5)cc(=O)n3C[C@@]2(C)C(F)(F)F)cc1 [Compound 70]"
target_or_system = "human PI3Kα (Homo sapiens (Human), UniProt P42336)"
operator_symbol = "="
numeric_result = 6.00

[[record]]
molecule = "O=CN1CCC(C(=O)CN2c3nc(N4C[C@@H]5C[C@H]4CO5)cc(=O)n3CC[C@H]2C(F)(F)F)CC1 [Compound 118]"
target_or_system = "human PI3Kα (Homo sapiens (Human), UniProt P42336)"
operator_symbol = "<"
numeric_result = 5.00

[[record]]
molecule = "CCC(O)(CC)CCN1c2nc(N3C[C@@H]4C[C@H]3CO4)cc(=O)n2CC[C@H]1C(F)(F)F [Compound 49]"
target_or_system = "human PI3Kα (Homo sapiens (Human), UniProt P42336)"
operator_symbol = "="
numeric_result = 5.56

[[record]]
molecule = "O=c1cc(N2C[C@@H]3C[C@H]2CO3)nc2n1CC[C@@H](C(F)(F)F)N2Cc1cccc2ncccc12 [Compound 106]"
target_or_system = "human PI3Kα (Homo sapiens (Human), UniProt P42336)"
operator_symbol = "<"
numeric_result = 5.00

[[record]]
molecule = "O=C(CN1c2nc(N3C[C@@H]4C[C@H]3CO4)cc(=O)n2CC[C@H]1C(F)(F)F)c1ccc(NCCO)nc1 [Compound 14]"
target_or_system = "human PI3Kα (Homo sapiens (Human), UniProt P42336)"
operator_symbol = "<"
numeric_result = 5.00

[[record]]
molecule = "O=c1cc(N2C[C@@H]3C[C@H]2CO3)nc2n1CC[C@@H](C(F)(F)F)N2CCc1ccc(OCCN2CCOCC2)cc1 [Compound 111]"
target_or_system = "human PI3Kα (Homo sapiens (Human), UniProt P42336)"
operator_symbol = "="
numeric_result = 6.48

[[record]]
molecule = "Cc1ncoc1C(=O)CN1c2nc(N3C[C@@H]4C[C@H]3CO4)cc(=O)n2CC[C@H]1C(F)(F)F [Compound 39]"
target_or_system = "human PI3Kα (Homo sapiens (Human), UniProt P42336)"
operator_symbol = "<"
numeric_result = 5.00

